Attribution: paper PMC9399058

assay.procedure: SPECT/CT biodistribution of 111In-labeled tracers in HEK-FAP tumor-bearing mice
Format: in vivo, mouse
study.conditions: mouse, in vivo, non-tumor bearing shoulder, 48 h p.i.; read-out: Shoulder %ID/g (mean ± SD)
outcome.measure: tissue uptake at 48 h (%ID/g)
Unit %ID/g implied. Number only.

Input CCCCCC(=O)N[C@H]1CSCc2cc(CSCCNC(=O)CN3CCN(CC(=O)O)CCN(CC(=O)O)CCN(CC(=O)O)CC3)cc(c2)CSC[C@@H](C(=O)O)NC(=O)[C@H](Cc2ccccc2)NC(=O)[C@H](CCC(N)=O)NC(=O)[C@H]([C@@H](C)O)NC(=O)[C@@H]2CCCN2C(=O)[C@@H]2CCCN2C1=O [^111In-FAP-2286, metal not drawn] . Output tissue uptake at 48 h: 0.1

* * *

assay.procedure: SPECT/CT biodistribution of 111In-labeled tracers in HEK-FAP tumor-bearing mice
Assay type: in vivo, mouse
study.conditions: mouse, in vivo, 6 h p.i.; read-out: Salivary Glands %ID/g (mean ± SD)
outcome.measure: tissue uptake at 6 h
Quote the value and follow it with the unit of measurement.

Input CCCCCC(=O)N[C@H]1CSCc2cc(CSCCNC(=O)CN3CCN(CC(=O)O)CCN(CC(=O)O)CCN(CC(=O)O)CC3)cc(c2)CSC[C@@H](C(=O)O)NC(=O)[C@H](Cc2ccccc2)NC(=O)[C@H](CCC(N)=O)NC(=O)[C@H]([C@@H](C)O)NC(=O)[C@@H]2CCCN2C(=O)[C@@H]2CCCN2C1=O [^111In-FAP-2286, metal not drawn] . Output tissue uptake at 6 h: 0.2 %ID/g

* * *

assay.procedure: PET/CT biodistribution of 68Ga-labeled tracers in HEK-FAP tumor-bearing mice
study.conditions: mouse, in vivo, 0.5 h after administration, 10 MBq IV, n=3
outcome.measure: tissue uptake at 0.5 h (%ID/g)
Unit %ID/g implied. Number only.

Input CCCCCC(=O)N[C@H]1CSCc2cc(CSCCNC(=O)CN3CCN(CC(=O)O)CCN(CC(=O)O)CCN(CC(=O)O)CC3)cc(c2)CSC[C@@H](C(=O)O)NC(=O)[C@H](Cc2ccccc2)NC(=O)[C@H](CCC(N)=O)NC(=O)[C@H]([C@@H](C)O)NC(=O)[C@@H]2CCCN2C(=O)[C@@H]2CCCN2C1=O [^68Ga-FAP-2286, metal not drawn] . Output tissue uptake at 0.5 h: 9.8

* * *

assay.procedure: SPECT/CT biodistribution of 111In-labeled tracers in HEK-FAP tumor-bearing mice
Assay type: in vivo, mouse
study.conditions: mouse, in vivo, heart, 1 h p.i.; read-out: Blood Pool Surrogate %ID/g (mean ± SD)
outcome.measure: tissue uptake at 1 h (%ID/g)
Unit %ID/g implied. Number only.

Input CCCCCC(=O)N[C@H]1CSCc2cc(CSCCNC(=O)CN3CCN(CC(=O)O)CCN(CC(=O)O)CCN(CC(=O)O)CC3)cc(c2)CSC[C@@H](C(=O)O)NC(=O)[C@H](Cc2ccccc2)NC(=O)[C@H](CCC(N)=O)NC(=O)[C@H]([C@@H](C)O)NC(=O)[C@@H]2CCCN2C(=O)[C@@H]2CCCN2C1=O [^111In-FAP-2286, metal not drawn] . Output tissue uptake at 1 h: 0.4

* * *

assay.procedure: SPECT/CT biodistribution and tumor dosimetry of 177Lu-labeled tracers in HEK-FAP tumor-bearing mice
Format: in vivo, mouse
study.conditions: mouse, in vivo, iv, 3 h p.i., 30 MBq IV, HEK-FAP mice, n=3; read-out: tumor uptake
outcome.measure: tissue uptake at 3 h

Input CCCCCC(=O)N[C@H]1CSCc2cc(CSCCNC(=O)CN3CCN(CC(=O)O)CCN(CC(=O)O)CCN(CC(=O)O)CC3)cc(c2)CSC[C@@H](C(=O)O)NC(=O)[C@H](Cc2ccccc2)NC(=O)[C@H](CCC(N)=O)NC(=O)[C@H]([C@@H](C)O)NC(=O)[C@@H]2CCCN2C(=O)[C@@H]2CCCN2C1=O [^177Lu-FAP-2286, metal not drawn] . Output tissue uptake at 3 h: 21.1 %ID/g
